test system: Rattus norvegicus; test: Hypertensive activity (increase in arterial pressure to 60 mmHg)) after i.v. administration to pithed rats.
Structures can show the parent of a compound that is named as a salt.
ENDPOINT: pC60 (uM kg-1)
Write it as a number; the unit uM kg-1 goes unstated.

Solved entries:
CCCN(CCC)C1CCc2c(ccc(O)c2O)C1 (configuration not stated) ... 0.54
CNCC(O)c1cccc(NS(C)(=O)=O)c1 (configuration not stated) [AMIDEPHRINE MESYLATE] ... 1.36
CN(C)C1CCc2c(ccc(O)c2O)C1 (configuration not stated) ... 1.2

Problem: Given the entry Cc1cc(C(C)(C)C)c(O)c(C)c1CC1=NCCN1 , report its measured pC60.
Result: 2.24

Problem: Given the entry FC(F)(F)c1ccc(Cl)c(NC2=NCCN2)c1 , report its measured pC60.
Result: 1.21

Problem: Given the entry c1ccc(C2CC2)c(OCC2=NCCN2)c1 , report its measured pC60.
Result: 2.36

Problem: Given the entry CCCN(CCC)C1CCc2c(O)cccc2C1 (configuration not stated) , report its measured pC60.
Result: -0.13

Problem: Given the entry c1cc2c(c(NC3=NCCN3)c1)CCCC2 , report its measured pC60.
Result: 1.8

====

target: Adrenergic receptor alpha-2 (Rattus norvegicus, UniProt P22086+P19328+P22909); test: Antagonist activity against B-HT 933-induced alpha-2-adrenoceptor-mediated vasoconstriction in pithed normotensive rats; assay type: functional
# pA2 annotations
Respond numerically, and do not add a unit to the figure.

Solved entries:
C=CCN1Cc2ccccc2-c2ccccc2C1 ... 4.88
c1ccc(CC2=NCCN2)cc1 ... 5.82
CN1C[C@H](C(=O)N[C@]2(C)O[C@@]3(O)[C@@H]4CCCN4C(=O)[C@H](Cc4ccccc4)N3C2=O)C[C@@H]2c3cccc4[nH]cc(c34)C[C@H]21 [DIHYDROERGOTAMINE] ... 7.25

As a next step, examine the compound that follows.
Problem: # query: pA2 | item c1ccc2c(c1)OCC(CN1CCCCC1)O2 (centres undefined) | system: Adrenergic receptor alpha-2 (Rattus norvegicus, UniProt P22086+P19328+P22909)
Result: 6.23

====

experiment: Apparent partion coefficient of compound was evaluated in octanol/buffer at pH of 7.4 at 37 degree Centigrade; format: physicochemical; conditions: pH 7.4
ENDPOINT: logD
Respond numerically, and do not add a unit to the figure.

c1ccc(C2CC2)c(OCC2=NCCN2)c1 ... 0.53
Cc1cc(C(C)(C)C)c(O)c(C)c1CC1=NCCN1 ... -0.32

As a next step, examine the molecule that follows.
Problem: Given the entry FC(F)(F)c1ccc(Cl)c(NC2=NCCN2)c1 , report its measured logD.
Result: 1.54

====

test system: Rattus norvegicus; test: Hypertensive activity (increase in arterial pressure to 60 mmHg)) after i.v. administration to pithed rats.
ENDPOINT: pC60 (uM kg-1)
Write it as a number; the unit uM kg-1 goes unstated.

COc1ccc(OC)c(C(O)C(C)N)c1 (centres undefined) [METHOXAMINE] ... 0.75
Oc1ccc(NC2=NCCN2)cc1O ... 2.44
Cc1cccc(C)c1NC1=NCCCS1 [XYLAZINE] ... -0.02

As a next step, examine the molecule that follows.
Problem: Given the entry CCCN(CCC)C1CCc2cc(O)c(O)cc2C1 (centres undefined) , report its measured pC60.
Result: 0.36
